- EXPERIMENTAL TARGET: Glucose transporter (Leishmania mexicana)
- ASSAY METHOD TEXT: ST_JUDE_LEISH: Cytotoxicity at 2uM final concentration against transgenic Leishmania Mexicana promastigotes LmGT2 that are glucose transport deficient and complemented with the L. Mexicana glucose transporter 2. Activity is measured by DNA content using SYBR green in vitro
- Type: functional
READOUT: inhibition (%)
Numbers only, in %.

These solved cases illustrate the format of a correct answer.
MOLECULE: COC(=O)c1cccc(CNCc2ccc(-c3ccc(-c4nc5cc(F)ccc5[nH]4)s3)cc2)c1
EXPERIMENTAL TARGET: Glucose transporter (Leishmania mexicana)
READOUT: inhibition
ASSAY RESULT: 1.42
//
MOLECULE: Cc1cc(N[C@@H](Cc2ccccc2)C(=O)Nc2ccccc2)nc(NCCN2CCCC2)n1
EXPERIMENTAL TARGET: Glucose transporter (Leishmania mexicana)
READOUT: inhibition
ASSAY RESULT: -2.29
//
MOLECULE: N#Cc1cnc2cc(-c3cnc(CNCCN4CCOCC4)s3)ccc2c1Nc1ccc(Oc2ccccc2)cc1
EXPERIMENTAL TARGET: Glucose transporter (Leishmania mexicana)
READOUT: inhibition
ASSAY RESULT: 1.64
//
MOLECULE: CCCCOc1cc(CNCCCCCCNCc2cc(OCCCC)cc3ccccc23)c2ccccc2c1
EXPERIMENTAL TARGET: Glucose transporter (Leishmania mexicana)
READOUT: inhibition
ASSAY RESULT: -2.17
//
MOLECULE: CN(C)C(=O)c1ccc(CN(Cc2ccc(OC(C)(C)C)cc2)Cc2ccc3c(c2)OCCO3)cc1
EXPERIMENTAL TARGET: Glucose transporter (Leishmania mexicana)
READOUT: inhibition
ASSAY RESULT: 0.26

Below are some molecules; for each one, tell me its inhibition.
1. OC(CN1CCN(c2cccc(Cl)c2)CC1)C(c1ccccc1)c1ccccc1 (stereo unspecified)
2. Cc1nc(C(C)Nc2nncc(-c3ccc(Cl)cc3)n2)cs1 (stereo unspecified)
3. CC(C(=O)NC1CCN(c2ccnc(Nc3ccc(F)cc3)n2)C1)c1ccc(Cl)cc1 (stereo unspecified)
4. Cc1cccc2nc(-c3cccc(-c4cccc(NC(=O)c5cnccc5C(F)(F)F)c4)c3)[nH]c12
5. O=c1ccccn1CCCC1CCCCN1 (stereo unspecified)

1. -2.94
2. 1.17
3. 2.7
4. -3.32
5. 13.5

---

I'd appreciate it if you could supply inhibition values for the items below.
- EXPERIMENTAL TARGET: Glucose transporter (Leishmania mexicana)
- ASSAY METHOD TEXT: ST_JUDE_LEISH: Cytotoxicity at 2uM final concentration against transgenic Leishmania Mexicana promastigotes LmGT2 that are glucose transport deficient and complemented with the L. Mexicana glucose transporter 2. Activity is measured by DNA content using SYBR green in vitro
- Assay type: functional
Numbers only, in %.

These solved cases illustrate the format of a correct answer.
MOLECULE: CCCC(=O)c1cnc2c(OCCCc3c[nH]cn3)cccc2c1Nc1c(C)cccc1C
UNIT OF MEASUREMENT: %
inhibition: -1.19
--
MOLECULE: O=C(NC1CC1)c1ccc(N2CCC(Cc3ccccc3)CC2)c([N+](=O)[O-])c1
UNIT OF MEASUREMENT: %
inhibition: 3.45
--
MOLECULE: COc1ccc(O)c(C(=O)NCCc2ccc(OC)c(-c3ccc(C(C)(C)C)cc3)c2)c1
UNIT OF MEASUREMENT: %
inhibition: 4.69
--
MOLECULE: Cc1cccc(CNc2nc(C)cc(NCCC(=O)Nc3ccccc3)n2)c1
UNIT OF MEASUREMENT: %
inhibition: 5.57
--
MOLECULE: CCCc1cc(N2CCC(c3ccccc3)(N3CCCCC3)CC2)nc(Nc2ccc(OC)cc2)n1
UNIT OF MEASUREMENT: %
inhibition: 6.08

Below are some molecules; for each one, tell me its inhibition.
1. O=C(Nc1cccc(CN2CCCN(Cc3ccc(O)cc3)CC2)c1)c1ccc(Br)cc1
2. CC(C)Sc1ccc(Cl)cc1CON1C(=N)N=C(N)NC1(C)C
3. c1ccc(COc2ccc(Cn3ccc(-c4ccc(-n5ccnc5)cc4)n3)cc2)cc1.c1ccc(COc2ccc(Cn3nccc3-c3ccc(-n4ccnc4)cc3)cc2)cc1
4. CCCC(=O)c1cnc2c(Oc3cc(Cl)ncn3)cccc2c1Nc1ccccc1C
5. COc1ccc(CNC2CCN(C)CC2)cc1-c1ccc(S(=O)(=O)NC2CCC2)c(F)c1
6. Cc1cc(NCCC(=O)NCc2cccc(F)c2)nc(Nc2ccccc2)n1
7. CN(C)CCNc1cc(-c2cccnc2)nc(-c2ccncc2)n1
8. O=C(Nc1ccc(OC(F)(F)F)cc1)Nc1ccc([N+](=O)[O-])cc1

[3.89, 0.87, 1.48, 6.89, 1.91, -6.28, -1.09, 1.9]

Below are some molecules; for each one, tell me its inhibition.
1. CCN(CC)c1ccc(-c2nc3cc(Cl)cnc3[nH]2)cc1
2. COc1ccc(-c2cccc(NC(=O)c3cccc(Cl)c3)c2)cc1CN1CCNCC1
3. COc1cc(Cc2cnc(N)nc2N)cc(OCCCN2C(=O)c3ccccc3C2=O)c1OC
4. Cc1ccc2cc(NC(=O)CCCCCCCON3C(N)=NC(N)=NC34CCCCC4)ccc2n1
5. CC[C@H](C)CNC(=O)c1cncc(-c2ccc(CNC3Cc4ccccc4C3)cc2)c1
6. COc1ccc2c(=NN=Cc3ccccc3F)cc(C)[nH]c2c1

[3.88, -0.77, 6.69, 0.83, 5.96, 0.39]
